Hi there, I'd appreciate the recorded Delta MAP for every entry that follows.
System: Rattus norvegicus
Test: Hypotensive activity was evaluated in an anesthetized rat model as percent mean aortic blood pressure(mm hg) reduction 5 min after iv injection of 5 mg/kg
Type: functional, Artery
Include the unit after the number when you answer.

# Delta MAP lookup, item `COc1cc2c(cc1OC)CC(=O)N(CCCN(C)CCc1c[nH]c3ccc(OCc4ccccc4)cc13)CC2`
-45%

# Delta MAP lookup, item `COc1cc2c(cc1OC)CC(=O)N(CCCN(C)CCc1cccn1C)CC2`
-18%

# Delta MAP lookup, item `COc1ccc2c(CCN(C)CCCN3CCc4cc(OC)c(OC)cc4CC3=O)coc2c1`
-35%

# Delta MAP lookup, item `COc1cc2c(cc1OC)CC(=O)N(CCCN(C)CCCc1cccs1)CC2`
-20%

# Delta MAP lookup, item `COc1cc2c(cc1OC)CC(=O)N(CCCN(C)CCc1cccs1)CC2`
-34%

# Delta MAP lookup, item `COc1cc2c(cc1OC)CC(=O)N(CCCN(C)CCCCc1cccs1)CC2`
-2%

# Delta MAP lookup, item `COc1cc2c(cc1OC)CC(=O)N(CCCN(C)CCCc1c[nH]c3ccccc13)CC2`
-34%

# Delta MAP lookup, item `COc1cc2c(cc1OC)CC(=O)N(CCCN(C)CCc1coc3cccc(OC)c13)CC2`
-8%

# Delta MAP lookup, item `COc1ccc(CCN(C)CCCN2CCc3cc(OC)c(OC)cc3CC2=O)cc1OC`
-21%

# Delta MAP lookup, item `COc1cc2c(cc1OC)CC(=O)N(CCCN(C)CCCCCc1cccs1)CC2`
-15%

The measurements presented in this section are drawn from ChEMBL document CHEMBL1125645.
